Source listed as PubChem BioAssay AID1159580.

Assay: chemical genetic growth profiling, strain panel (AID 1159580);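 also: tested at 20 µM; growth read once vehicle control cultures reached saturation at 30 °C; 1 = growth at the plate median or of vehicle wells; lower values mean less growth of the strain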
Settings: S. cerevisiae deletion strains, growth OD, locus YPL209C, strain IPL1, stronger effect = lower value
Hit rate of the full screen: of about 5,500 compounds, about 2,000 (36%) were called active. About 18% were inconclusive and are not listed. Some of the results follow.
observation-type: normalized growth
// return just the number, without any unit appended

The value of normalized growth measured for the compound `O=C(C=C(O)c1ccc(Br)cc1)C(=O)Nc1ccccc1` turned out to be 0.646

Record summary for `C=CC(=O)N1CCc2cc([N+](=O)[O-])ccc21` : reported normalized growth = 0.778

Looking up Cc1ccccc1C(=O)N1CCc2c([nH]c3ccccc23)C1C(F)(F)F (centres undefined) , I found its normalized growth recorded as 0.986

Entry under test: `O=C(NCc1ccco1)c1ccc(Oc2cc(Cl)cc(Cl)c2)o1` . Its normalized growth was 0.961

# normalized growth of Cc1oc2c(F)c(F)c(F)c(F)c2c1C(=O)ONC(N)c1ccc(OS(=O)(=O)N(C)C)cc1 (centres undefined) = 0.974

`N#C/C(=C\c1ccccc1Sc1ccc(Cl)cc1)S(=O)(=O)c1ccccn1` has a reported normalized growth of 0.968

Record summary for `Cc1cc(SCc2[nH]nc3oc(=O)cc(C)c23)c(Cl)cc1Cl` : reported normalized growth = 0.991

Recorded result, `CC1=CC(=O)C(CCOCCC2=CC(=O)C(C)=CC2=O)=CC1=O` , normalized growth: 0.991

The compound listed as `CC(C)(C)C1=NN(c2nc3ccc(Cl)cc3s2)C(=O)C1` shows normalized growth equal to 0.0986

normalized growth recorded for this compound, `Cc1c(C(=O)N2CCCCC2)cc(-c2ccccc2)n1-c1ccccc1` , is 0.974

normalized growth for `N#Cc1c(Cl)c(Cl)c(Cl)c(Cl)c1C#N` is 0.711

In plain terms, `Cc1c(Cl)cccc1NC(=S)N1CCCN(c2ccc(C(F)(F)F)cc2[N+](=O)[O-])CC1` has a documented normalized growth of 0.99

Input `O=C(Nc1cc(Cl)cc(Cl)c1)Nc1cc(-c2cccs2)[nH]n1` . Output normalized growth: 0.958

normalized growth recorded for this compound, CCC(C)c1ccccc1NC(=O)c1cc2cccc([N+](=O)[O-])c2[nH]1 (centres undefined) , is 0.921

For `Cn1c([N+](=O)[O-])cnc1/C=C(\C#N)C(=O)Nc1ccc(F)cc1` the compound record lists normalized growth as 0.476

Query `O=C(Nc1c(Br)c(C2CC2)nn1-c1ccccc1)C(Cl)(Cl)Cl` yields normalized growth of 0.922

Note to self: normalized growth recorded for `O=[N+]([O-])c1cc(C(F)(F)F)ccc1-n1ccc(-c2cccs2)n1` was 0.959

Memo: `S=C(Nc1cc(-c2cccs2)[nH]n1)Nc1ccccc1Cl` , reported normalized growth: 0.942

According to the records, this compound `O=C(Oc1cc(Cl)c(Cl)cc1Cl)C1c2ccccc2Oc2ccccc21` displays normalized growth of 0.938

----------
Test: chemical genetic growth profiling, strain panel (AID 1159580)
Details: S. cerevisiae deletion strains, growth OD, locus YIL066C, strain RNR3
About 2,000 (36%) of roughly 5,500 compounds were called active. Not shown: some 18% with an inconclusive outcome. Cut-off read from the data, not from the text of the source: active = normalized growth mostly below about 0.91 (no sharp cut-off); inconclusive = no clear call, values can overlap the other calls; inactive = mostly above about 0.92. The list shows a part of the results.
One label from this list, please: active, inactive

Query: recorded result category for `C=C(C)/C=C1/C=CC(=O)C(C)=C1` in this test
active

Could you kindly confirm the outcome this assay logged for `Cc1cc(=O)c2c(O)cc(O)c(C)c2o1` ?
inactive

How did this test come out for `Cc1c(O)cc(O)c2c(=O)c(-c3ccc(O)cc3)coc12` ?
inactive

Please indicate how the test categorized NC[C@@H]1O[C@H](O[C@@H]2[C@@H](CO)OC(O[C@@H]3[C@@H](O)[C@H](N)C[C@H](N)[C@H]3OC3O[C@H](CN)[C@@H](O)[C@H](O)[C@H]3N)[C@@H]2O)[C@H](N)[C@@H](O)[C@@H]1O (stereo not given in full) .
inactive

Please share the test call associated with `Cc1cc(=O)c2c(O)c(C)c(O)cc2o1` .
inactive

----------
Assay: chemical genetic growth profiling, strain panel (AID 1159580);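 also: tested at 20 µM; growth read once vehicle control cultures reached saturation at 30 °C; 1 = growth at the plate median or of vehicle wells; lower values mean less growth of the strain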
Conditions: S. cerevisiae deletion strains, growth OD, locus YDR477W, strain SNF1, stronger effect = lower value
Hit rate of the full screen: of about 5,500 compounds, about 2,000 (36%) were called active. Roughly 18% stayed inconclusive and do not appear here. The list shows a part of the results.
Can you tell me normalized growth for the items I'm about to list?

Recorded result, `Cc1c(C(=O)N2CCCCC2)cc(-c2ccccc2)n1-c1ccccc1` , normalized growth: 0.908 (inactive)

// recorded normalized growth for Cc1oc2c(F)c(F)c(F)c(F)c2c1C(=O)ONC(N)c1ccc(OS(=O)(=O)N(C)C)cc1 (stereo not given) : 0.946 (inactive)

Record `Cn1c([N+](=O)[O-])cnc1/C=C(\C#N)C(=O)Nc1ccc(F)cc1` . Reported normalized growth: 0.104 (active)

Summary for this compound, `O=C(Nc1c(Br)c(C2CC2)nn1-c1ccccc1)C(Cl)(Cl)Cl` : normalized growth is 0.826 (inactive)

normalized growth in this record for `O=C(CCN1CCCCC1)c1ccc(-c2ccccc2)cc1` : 0.785 (inactive)

The compound listed as `O=C(C=C(O)c1ccc(Br)cc1)C(=O)Nc1ccccc1` shows normalized growth equal to 0.105 (active)

Lab note: CCC(C)c1ccccc1NC(=O)c1cc2cccc([N+](=O)[O-])c2[nH]1 (stereo not given) gave normalized growth of 0.792 (inactive)

For `C/C(=N/NC(N)=S)c1ccc(Oc2c(Cl)cncc2Cl)cc1` the compound record lists normalized growth as 0.999 (inactive)

Measured normalized growth, `Cc1cc(SCc2[nH]nc3oc(=O)cc(C)c23)c(Cl)cc1Cl` : 1.01 (inactive)

normalized growth reading for `COc1ccc(NC(=O)O/N=C(/N)c2ccc(Oc3c(Cl)cncc3Cl)cc2)cc1` : 0.758 (inactive)

----------
Assay: chemical genetic growth profiling, strain panel (AID 1159580);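 also: tested at 20 µM; growth read once vehicle control cultures reached saturation at 30 °C; 1 = growth at the plate median or of vehicle wells; lower values mean less growth of the strain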
Conditions: S. cerevisiae deletion strains, growth OD, locus YNR049C, strain mso1, stronger effect = lower value
Hit rate of the full screen: of about 5,500 compounds, about 2,000 (36%) were called active. Not shown: some 18% with an inconclusive outcome. The list shows a part of the results.
observation-type: normalized growth
Note: the reply should be a number with no unit written.

Lab book: normalized growth of O=C1CC(c2ccc(O)c(O)c2)Oc2cc(O)cc(O)c21 (stereo not given) noted as 1

Documented normalized growth of C=C1CC[C@H](O)C/C1=C/C=C1\CCC[C@]2(C)C([C@H](C)/C=C/[C@H](C)C(C)C)CC[C@@H]12 (stereo not given in full) : 1.02

Lab book: normalized growth of CC(C)(CO)C(O)C(=O)NCCCO (stereo not given) noted as 1.01

Briefly, normalized growth measured for `O=C1C[C@@H](c2ccc(O)cc2)Oc2cc(O)cc(O)c21` : 0.959

Briefly, normalized growth measured for `OCCN(CCO)c1nc(N2CCCCC2)c2nc(N(CCO)CCO)nc(N3CCCCC3)c2n1` : 0.984

----------
Provide the recorded normalized growth for the entries that follow.
Experiment: chemical genetic growth profiling, strain panel (AID 1159580);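 also: tested at 20 µM; growth read once vehicle control cultures reached saturation at 30 °C; 1 = growth at the plate median or of vehicle wells; lower values mean less growth of the strain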
Conditions: S. cerevisiae deletion strains, growth OD, locus YER155C, strain BEM2, stronger effect = lower value
Screen size: about 5,500 compounds; about 2,000 (36%) were called active. About 18% were inconclusive and are not listed. The list shows a part of the results.

Consider COC(=O)[C@@H]1C(O)CC[C@H]2CN3CCc4c([nH]c5ccccc45)[C@@H]3C[C@@H]21 (stereo not given in full) . Its measured normalized growth is 0.992 (inactive)

The recorded normalized growth for COC(=O)C1[C@H]2C[C@H]3c4[nH]c5ccccc5c4CCN3C[C@@H]2CC[C@@H]1O (stereo not given in full) is 1.01 (inactive)

normalized growth in this record for `C=CC1=C(C(=O)O)N2C(=O)[C@@H](NC(=O)/C(=N/O)c3csc(N)n3)[C@H]2SC1` : 0.994 (inactive)

Documented normalized growth of `O=c1ccc2ccccc2o1` : 1.02 (inactive)

The recorded normalized growth for C[N+](C)(C)CCOP(=O)([O-])OP(=O)(O)OC[C@H]1OC(n2ccc(N)nc2=O)[C@H](O)[C@@H]1O (stereo not given in full) is 0.995 (inactive)

Just so you know, measured normalized growth for O=C(O)C1C(O)CCC2CN3CCc4c([nH]c5ccccc45)C3CC21 (stereo not given) came out at 1.02 (inactive)

Note to self: normalized growth recorded for `CNc1ccccc1C(=O)N1CCc2c([nH]c3ccccc23)C1=O` was 0.997 (inactive)

Record summary for CC(=O)O[C@]1(C(C)=O)CCC2C3C[C@H](C)C4=CC(=O)CC[C@]4(C)C3CC[C@@]21C (stereo not given in full) : reported normalized growth = 0.98 (inactive)

normalized growth in this record for CC(=O)O[C@@](C)(CCC=C(C)C)C1CC=C(C)CC1 (stereo not given in full) : 1.02 (inactive)

Item: `Cn1cc[nH]c1=S` | normalized growth: 1 (inactive)
